system: Mycobacterium kansasii; assay: Antimycobacterial activity against Mycobacterium kansasii CNCTC My 235/80 after 14 days by micromethod; type: functional; details: CNCTC My 235/80, 336 h
Quantity Kind: MIC99

These recorded examples may help you get a feel for the data.
INSERT INTO assay_data (mol, meas_value) VALUES
  ('Cc1ccc(Cn2nnc(-c3cc([N+](=O)[O-])cc([N+](=O)[O-])c3)n2)cc1', '1 µM'),
  ('Cc1ccc(Cn2nnnc2-c2cc([N+](=O)[O-])cc([N+](=O)[O-])c2)cc1', '2 µM'),
  ('O=[N+]([O-])c1cc(-c2nnn(Cc3ccc(Br)cc3)n2)cc([N+](=O)[O-])c1', '1 µM'),
  ('COc1ccccc1-n1nnnc1SCn1nnc(-c2cc([N+](=O)[O-])cc([N+](=O)[O-])c2)n1', '32 µM'),
  ('CCCCCCCCCCCCn1nnc(-c2cc([N+](=O)[O-])cc([N+](=O)[O-])c2)n1', '8 µM'),
  ('O=[N+]([O-])c1cc(-c2nnn(CCCCSc3nnnn3-c3ccc(Cl)c(Cl)c3)n2)cc([N+](=O)[O-])c1', '1 µM');

Turning now to a further compound:
// query I am curious: what MIC99 value has been reported for NNC(=O)c1ccncc1 ?
// result > 250 µM

---

The reader will find reported MIC99 values listed item by item below.
system: Mycobacterium kansasii; experiment: Antimycobacterial activity against Mycobacterium kansasii CNCTC My 235/80 after 7 days by micromethod; assay type: functional; details: CNCTC My 235/80, 168 h
Write the quantity with the unit trailing the number.

INSERT INTO measurements (mol, meas_value) VALUES
  ('COc1ccc(Cn2nnnc2-c2cc([N+](=O)[O-])cc([N+](=O)[O-])c2)cc1', '16 µM'),
  ('O=[N+]([O-])c1cc(-c2nnn(CSc3nnnn3-c3ccccc3)n2)cc([N+](=O)[O-])c1', '1 µM');

Turning now to a further compound:
// query Return MIC99 measured with Mycobacterium kansasii given this compound: COc1ccc(Cn2nnc(-c3cc([N+](=O)[O-])cc([N+](=O)[O-])c3)n2)cc1
// result 0.125 µM

---

The reader will find reported MIC99 values listed item by item below.
system: Mycobacterium kansasii; test: Antimycobacterial activity against Mycobacterium kansasii CNCTC My 235/80 after 14 days by micromethod; format: functional; settings: CNCTC My 235/80, 336 h
Response body: numeric value in µM, unit text excluded.

INSERT INTO results (mol, result_unit, meas_value) VALUES
  ('O=[N+]([O-])c1cc(-c2nnn(CCSc3nnnn3-c3ccc(Cl)c(Cl)c3)n2)cc([N+](=O)[O-])c1', 'µM', 0.5),
  ('O=[N+]([O-])c1cc(-c2nnnn2Cc2ccc(Cl)cc2)cc([N+](=O)[O-])c1', 'µM', 16),
  ('O=[N+]([O-])c1cc(-c2nnn(CCCSc3nnnn3-c3ccc(Br)cc3)n2)cc([N+](=O)[O-])c1', 'µM', 1);

// query I am curious: what MIC99 value has been reported for O=[N+]([O-])c1cc(-c2nnn(Cc3ccc(F)c(F)c3)n2)cc([N+](=O)[O-])c1 ?
// result 2

// query Follow-up entry: O=[N+]([O-])c1cc(-c2nnn(Cc3c(F)cccc3Cl)n2)cc([N+](=O)[O-])c1
// result 1

// query Follow-up entry: Cn1nnc(-c2cc([N+](=O)[O-])cc([N+](=O)[O-])c2)n1
// result 125

// query Follow-up entry: O=[N+]([O-])c1cc(-c2nnn(CCCSc3nnnn3-c3ccc(Cl)c(Cl)c3)n2)cc([N+](=O)[O-])c1
// result 0.5

// query Follow-up entry: Cn1nnnc1SCn1nnc(-c2cc([N+](=O)[O-])cc([N+](=O)[O-])c2)n1
// result 32

// query Follow-up entry: O=[N+]([O-])c1cc(-c2nnn(Cc3ccc(F)cc3)n2)cc([N+](=O)[O-])c1
// result 2

// query Follow-up entry: O=[N+]([O-])c1cc(-c2nnn(CSc3nnnn3-c3ccc(Br)cc3)n2)cc([N+](=O)[O-])c1
// result 0.25

// query Follow-up entry: O=[N+]([O-])c1cc(-c2nnn(Cc3cccc(Br)c3)n2)cc([N+](=O)[O-])c1
// result 2

// query Follow-up entry: COc1cccc(-n2nnnc2SCn2nnc(-c3cc([N+](=O)[O-])cc([N+](=O)[O-])c3)n2)c1
// result 1

// query Follow-up entry: COc1cccc(Cn2nnc(-c3cc([N+](=O)[O-])cc([N+](=O)[O-])c3)n2)c1
// result 2

// query Follow-up entry: O=[N+]([O-])c1cc(-c2nnn(CSc3nnnn3C3CCCCC3)n2)cc([N+](=O)[O-])c1
// result 0.06

// query Follow-up entry: O=[N+]([O-])c1cc(-c2nnn(CSc3nnnn3-c3ccccc3)n2)cc([N+](=O)[O-])c1
// result 2

// query Follow-up entry: COc1ccc(Cn2nnnc2-c2cc([N+](=O)[O-])cc([N+](=O)[O-])c2)cc1
// result 32

// query Follow-up entry: O=[N+]([O-])c1cc(-c2nnn(CSc3nnnn3Cc3ccccc3)n2)cc([N+](=O)[O-])c1
// result 4

// query Follow-up entry: O=[N+]([O-])c1cc(-c2nnn(Cc3cccc(Cl)c3)n2)cc([N+](=O)[O-])c1
// result 2

---

system: Nakaseomyces glabratus; test: Antifungal activity against Candida glabrata 20/I after 24 hrs by broth microdilution method; assay type: functional
Quantity Kind: MIC

INSERT INTO measurements (mol, meas_value) VALUES
  ('O=[N+]([O-])c1cc(-c2nnn(Cc3ccc(Cl)cc3)n2)cc([N+](=O)[O-])c1', '> 500 µM');

// query I am curious: what MIC value has been reported for COc1ccc(Cn2nnc(-c3cc([N+](=O)[O-])cc([N+](=O)[O-])c3)n2)cc1 ?
// result > 500 µM

// query Follow-up entry: O=[N+]([O-])c1cc(-c2nnnn2Cc2ccccc2)cc([N+](=O)[O-])c1
// result 250 µM

// query Follow-up entry: Cc1ccc(Cn2nnnc2-c2cc([N+](=O)[O-])cc([N+](=O)[O-])c2)cc1
// result > 500 µM

// query Follow-up entry: COc1ccc(Cn2nnnc2-c2cc([N+](=O)[O-])cc([N+](=O)[O-])c2)cc1
// result 500 µM

---

tested on: Candida albicans; assay: Antifungal activity against Candida albicans ATCC 44859 after 48 hrs by broth microdilution method; assay type: functional; conditions: ATCC 44859, 48 h
Quantity Kind: MIC

These recorded examples may help you get a feel for the data.
INSERT INTO assay_data (mol, meas_value) VALUES
  ('COc1cccc(Cn2nnc(-c3cc([N+](=O)[O-])cc([N+](=O)[O-])c3)n2)c1', '> 500 µM'),
  ('O=[N+]([O-])c1cc(-c2nnn(CSc3nnnn3-c3ccc(Cl)c(Cl)c3)n2)cc([N+](=O)[O-])c1', '> 125 µM');

// query I am curious: what MIC value has been reported for O=[N+]([O-])c1cc(-c2nnn(CSc3nnnn3-c3ccc(Cl)cc3)n2)cc([N+](=O)[O-])c1 ?
// result > 125 µM

// query Follow-up entry: O=[N+]([O-])c1cc(-c2nnn(Cc3ccc(F)cc3)n2)cc([N+](=O)[O-])c1
// result > 500 µM

// query Follow-up entry: O=[N+]([O-])c1cc(-c2nnn(Cc3ccc(Cl)cc3)n2)cc([N+](=O)[O-])c1
// result > 500 µM

// query Follow-up entry: O=[N+]([O-])c1cc(-c2nnn(CSc3nnnn3-c3ccccc3)n2)cc([N+](=O)[O-])c1
// result > 125 µM

// query Follow-up entry: COc1ccc(Cn2nnc(-c3cc([N+](=O)[O-])cc([N+](=O)[O-])c3)n2)cc1
// result > 500 µM

// query Follow-up entry: Cc1ccc(Cn2nnc(-c3cc([N+](=O)[O-])cc([N+](=O)[O-])c3)n2)cc1
// result > 500 µM

---

test system: Trichophyton mentagrophytes; test: Antifungal activity against Trichophyton mentagrophytes 445 after 72 hrs by broth microdilution method; type: functional; settings: Trichophyton mentagrophytes, 445, 72 h
The reader will find reported MIC values listed item by item below.

INSERT INTO results (mol, meas_value) VALUES
  ('O=[N+]([O-])c1cc(-c2nnn(CSc3nnnn3Cc3ccccc3)n2)cc([N+](=O)[O-])c1', '> 125 µM');

// query I am curious: what MIC value has been reported for COc1cccc(-n2nnnc2SCn2nnc(-c3cc([N+](=O)[O-])cc([N+](=O)[O-])c3)n2)c1 ?
// result > 500 µM

// query Follow-up entry: COc1cccc(Cn2nnc(-c3cc([N+](=O)[O-])cc([N+](=O)[O-])c3)n2)c1
// result > 500 µM

// query Follow-up entry: O=[N+]([O-])c1cc(-c2nnn(Cc3ccc(F)cc3)n2)cc([N+](=O)[O-])c1
// result > 500 µM

// query Follow-up entry: O=[N+]([O-])c1cc(-c2nnn(Cc3cccc(Cl)c3)n2)cc([N+](=O)[O-])c1
// result > 500 µM
